Target: UniProt:Q9BY41
Sequence (Q9BY41 whole entry): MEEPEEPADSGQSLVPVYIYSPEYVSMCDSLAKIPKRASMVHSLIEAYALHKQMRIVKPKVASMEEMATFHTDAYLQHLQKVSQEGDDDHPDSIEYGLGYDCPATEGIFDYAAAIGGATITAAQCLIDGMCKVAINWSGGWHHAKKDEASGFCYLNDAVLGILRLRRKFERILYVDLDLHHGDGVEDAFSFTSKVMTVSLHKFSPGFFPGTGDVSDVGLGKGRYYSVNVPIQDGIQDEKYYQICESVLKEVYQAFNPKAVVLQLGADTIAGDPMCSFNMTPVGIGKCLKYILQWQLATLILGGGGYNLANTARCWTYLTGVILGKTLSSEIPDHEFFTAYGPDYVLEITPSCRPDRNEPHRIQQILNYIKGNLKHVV
Assay: Inhibition of recombinant human HDAC8 after 60 mins by fluorescence assay
pIC50: −log10 of the molar value.
readout: pIC50

molecule	qualifyingSign	endpointValue
C/C=C1\NC(=O)c2csc(n2)CNC(=O)C[C@@H](/C=C/CCS)OC(=O)[C@H](C(C)C)NC1=O	=	5.45
C/C=C1\NC(=O)C(CS)NC(=O)[C@@H](C(C)C)NC(=O)C[C@@H](/C=C/CCS)OC(=O)[C@H](C(C)C)NC1=O (single isomer, unassigned)	=	7.60
C/C=C1\NC(=O)c2csc(n2)CNC(=O)C[C@@H](/C=C/CCSC(C)=O)OC(=O)[C@H](C(C)C)NC1=O	<	5.00
C/C=C1\NC(=O)c2csc(n2)CNC(=O)C[C@@H](/C=C/CCSC(=O)CCCCCCC)OC(=O)[C@H](C(C)C)NC1=O	<	5.00
C/C=C1\NC(=O)c2csc(n2)[C@@H](C(C)C)NC(=O)C[C@@H](/C=C/CCSC(=O)CCCCCCC)OC(=O)[C@H](C(C)C)NC1=O	<	5.00
CCCCCCCC(=O)SCC/C=C/[C@@H]1CC(=O)NCc2nc(cs2)C2=N[C@@](C)(CS2)C(=O)N[C@@H](C(C)C)C(=O)O1	<	5.00
C/C=C1\NC(=O)c2csc(n2)[C@@H](C(C)C)NC(=O)C[C@@H](/C=C/CCS)OC(=O)[C@H](C(C)C)NC1=O	=	5.59

====

Assay: Antiproliferative activity against human HLF cells after 72 hrs by CCK8 assay
Type: cell-based
Note to self: GI50 at 72 h under 0.3 µM means Fulfilled, ties and anything higher get Not fulfilled.

inputSmiles	qualitativeLabel
C/C=C1\NC(=O)[C@H]2CSSCC/C=C/[C@H](CC(=O)N[C@H](C(C)C)C(=O)N2)OC(=O)[C@H](C(C)C)NC1=O	Fulfilled
C/C=C1\NC(=O)c2csc(n2)[C@@H](C(C)C)NC(=O)C[C@@H](/C=C/CCSC(=O)CCCCCCC)OC(=O)[C@H](C(C)C)NC1=O	Not fulfilled
C/C=C1\NC(=O)c2csc(n2)CNC(=O)C[C@@H](/C=C/CCSC(C)=O)OC(=O)[C@H](C(C)C)NC1=O	Not fulfilled
C/C=C1\NC(=O)c2csc(n2)CNC(=O)C[C@@H](/C=C/CCSC(=O)CCCCCCC)OC(=O)[C@H](C(C)C)NC1=O	Not fulfilled
CCCCCCCC(=O)SCC/C=C/[C@@H]1CC(=O)NCc2nc(cs2)C2=N[C@@](C)(CS2)C(=O)N[C@@H](C(C)C)C(=O)O1	Fulfilled
O=C(CCCCCCC(=O)Nc1ccccc1)NO	Not fulfilled

====

Target: Protein deacetylase HDAC6 (Homo sapiens)
Sequence (Q9UBN7 whole entry): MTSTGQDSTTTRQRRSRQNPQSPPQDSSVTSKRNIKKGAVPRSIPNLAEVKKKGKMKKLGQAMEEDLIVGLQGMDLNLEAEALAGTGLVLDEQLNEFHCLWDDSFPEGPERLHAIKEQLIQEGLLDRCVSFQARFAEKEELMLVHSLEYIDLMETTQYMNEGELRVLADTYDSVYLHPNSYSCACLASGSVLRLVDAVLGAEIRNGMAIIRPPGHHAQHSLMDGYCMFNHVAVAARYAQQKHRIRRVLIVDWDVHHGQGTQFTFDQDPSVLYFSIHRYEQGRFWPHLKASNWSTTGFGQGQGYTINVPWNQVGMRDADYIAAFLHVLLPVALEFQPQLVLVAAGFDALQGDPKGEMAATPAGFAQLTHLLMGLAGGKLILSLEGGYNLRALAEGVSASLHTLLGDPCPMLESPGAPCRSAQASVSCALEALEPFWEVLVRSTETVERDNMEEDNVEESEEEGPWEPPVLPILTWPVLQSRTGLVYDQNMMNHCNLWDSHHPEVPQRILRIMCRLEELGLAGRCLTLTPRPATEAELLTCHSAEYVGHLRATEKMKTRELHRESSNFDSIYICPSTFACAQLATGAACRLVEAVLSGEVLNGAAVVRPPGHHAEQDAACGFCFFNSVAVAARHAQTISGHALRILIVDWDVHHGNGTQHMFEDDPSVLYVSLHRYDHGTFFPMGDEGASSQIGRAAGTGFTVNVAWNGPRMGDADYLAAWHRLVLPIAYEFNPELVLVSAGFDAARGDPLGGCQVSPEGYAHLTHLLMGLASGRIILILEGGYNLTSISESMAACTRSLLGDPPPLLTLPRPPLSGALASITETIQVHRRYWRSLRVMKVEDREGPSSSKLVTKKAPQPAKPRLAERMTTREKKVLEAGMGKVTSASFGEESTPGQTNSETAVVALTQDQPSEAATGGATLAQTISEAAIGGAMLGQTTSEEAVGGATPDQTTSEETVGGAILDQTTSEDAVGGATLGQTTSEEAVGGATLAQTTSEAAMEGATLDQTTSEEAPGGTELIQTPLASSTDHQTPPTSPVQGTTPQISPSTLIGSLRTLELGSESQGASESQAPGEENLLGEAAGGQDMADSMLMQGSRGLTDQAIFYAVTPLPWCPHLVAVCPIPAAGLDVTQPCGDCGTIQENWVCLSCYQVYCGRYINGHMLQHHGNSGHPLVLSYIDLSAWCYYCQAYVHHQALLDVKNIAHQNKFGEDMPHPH
Test: Inhibition of recombinant human HDAC6 after 60 mins by fluorescence assay
pIC50: −log10 of the molar value.
Cut-off 6 on pIC50, inclusive. At or above means True; below means False.

compound	qualitativeLabel
C/C=C1\NC(=O)c2csc(n2)[C@@H](C(C)C)NC(=O)C[C@@H](/C=C/CCS)OC(=O)[C@H](C(C)C)NC1=O	True
C/C=C1\NC(=O)C(CS)NC(=O)[C@@H](C(C)C)NC(=O)C[C@@H](/C=C/CCS)OC(=O)[C@H](C(C)C)NC1=O (single isomer, unassigned) [FR-135313]	True
C/C=C1\NC(=O)c2csc(n2)CNC(=O)C[C@@H](/C=C/CCSC(=O)CCCCCCC)OC(=O)[C@H](C(C)C)NC1=O	False
C/C=C1\NC(=O)c2csc(n2)CNC(=O)C[C@@H](/C=C/CCS)OC(=O)[C@H](C(C)C)NC1=O	True
C/C=C1\NC(=O)c2csc(n2)CNC(=O)C[C@@H](/C=C/CCSC(C)=O)OC(=O)[C@H](C(C)C)NC1=O	False
C/C=C1\NC(=O)c2csc(n2)[C@@H](C(C)C)NC(=O)C[C@@H](/C=C/CCSC(=O)CCCCCCC)OC(=O)[C@H](C(C)C)NC1=O	False

====

Assay: Antiproliferative activity against human WI38 cells after 72 hrs by CCK8 assay
Assay type: cell-based, WI-38
Reported values of GI50 at 72 h for individual entries

inputSmiles	GI50 at 72 h (µM)
C/C=C1\NC(=O)c2csc(n2)[C@@H](C(C)C)NC(=O)C[C@@H](/C=C/CCSC(=O)CCCCCCC)OC(=O)[C@H](C(C)C)NC1=O	0.561
O=C(CCCCCCC(=O)Nc1ccccc1)NO	6.08
CCCCCCCC(=O)SCC/C=C/[C@@H]1CC(=O)NCc2nc(cs2)C2=N[C@@](C)(CS2)C(=O)N[C@@H](C(C)C)C(=O)O1	0.0825
C/C=C1\NC(=O)c2csc(n2)CNC(=O)C[C@@H](/C=C/CCSC(C)=O)OC(=O)[C@H](C(C)C)NC1=O	0.258
C/C=C1\NC(=O)[C@H]2CSSCC/C=C/[C@H](CC(=O)N[C@H](C(C)C)C(=O)N2)OC(=O)[C@H](C(C)C)NC1=O	0.00539
C/C=C1\NC(=O)c2csc(n2)CNC(=O)C[C@@H](/C=C/CCSC(=O)CCCCCCC)OC(=O)[C@H](C(C)C)NC1=O	0.157

====

Biological target: UniProt O15379
Sequence (O15379 whole entry): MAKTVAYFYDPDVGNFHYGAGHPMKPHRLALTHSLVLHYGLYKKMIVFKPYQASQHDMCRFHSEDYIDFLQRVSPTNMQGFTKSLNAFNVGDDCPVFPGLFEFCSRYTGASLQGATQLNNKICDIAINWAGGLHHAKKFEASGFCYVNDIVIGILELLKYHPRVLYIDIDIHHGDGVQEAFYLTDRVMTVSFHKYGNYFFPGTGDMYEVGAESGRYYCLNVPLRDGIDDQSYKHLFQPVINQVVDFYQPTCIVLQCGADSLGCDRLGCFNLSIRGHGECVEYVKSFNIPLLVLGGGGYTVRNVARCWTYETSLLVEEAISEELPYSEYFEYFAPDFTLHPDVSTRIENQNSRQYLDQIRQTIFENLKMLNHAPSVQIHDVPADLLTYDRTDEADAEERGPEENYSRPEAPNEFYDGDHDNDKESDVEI
Assay: Inhibition of recombinant human HDAC3 after 60 mins by fluorescence assay
Note to self: IC50 under 2000 nM means Fulfilled, ties and anything higher get Not fulfilled.

inputSmiles	targetDesc	qualitativeLabel
C/C=C1\NC(=O)c2csc(n2)[C@@H](C(C)C)NC(=O)C[C@@H](/C=C/CCSC(=O)CCCCCCC)OC(=O)[C@H](C(C)C)NC1=O	UniProt O15379	Not fulfilled
C/C=C1\NC(=O)c2csc(n2)CNC(=O)C[C@@H](/C=C/CCSC(C)=O)OC(=O)[C@H](C(C)C)NC1=O	UniProt O15379	Fulfilled
C/C=C1\NC(=O)c2csc(n2)[C@@H](C(C)C)NC(=O)C[C@@H](/C=C/CCS)OC(=O)[C@H](C(C)C)NC1=O	UniProt O15379	Fulfilled
C/C=C1\NC(=O)c2csc(n2)CNC(=O)C[C@@H](/C=C/CCS)OC(=O)[C@H](C(C)C)NC1=O	UniProt O15379	Fulfilled
C/C=C1\NC(=O)c2csc(n2)CNC(=O)C[C@@H](/C=C/CCSC(=O)CCCCCCC)OC(=O)[C@H](C(C)C)NC1=O	UniProt O15379	Fulfilled

====

Molecular target: Polyamine deacetylase HDAC10 (Homo sapiens)
Sequence (Q969S8 whole entry): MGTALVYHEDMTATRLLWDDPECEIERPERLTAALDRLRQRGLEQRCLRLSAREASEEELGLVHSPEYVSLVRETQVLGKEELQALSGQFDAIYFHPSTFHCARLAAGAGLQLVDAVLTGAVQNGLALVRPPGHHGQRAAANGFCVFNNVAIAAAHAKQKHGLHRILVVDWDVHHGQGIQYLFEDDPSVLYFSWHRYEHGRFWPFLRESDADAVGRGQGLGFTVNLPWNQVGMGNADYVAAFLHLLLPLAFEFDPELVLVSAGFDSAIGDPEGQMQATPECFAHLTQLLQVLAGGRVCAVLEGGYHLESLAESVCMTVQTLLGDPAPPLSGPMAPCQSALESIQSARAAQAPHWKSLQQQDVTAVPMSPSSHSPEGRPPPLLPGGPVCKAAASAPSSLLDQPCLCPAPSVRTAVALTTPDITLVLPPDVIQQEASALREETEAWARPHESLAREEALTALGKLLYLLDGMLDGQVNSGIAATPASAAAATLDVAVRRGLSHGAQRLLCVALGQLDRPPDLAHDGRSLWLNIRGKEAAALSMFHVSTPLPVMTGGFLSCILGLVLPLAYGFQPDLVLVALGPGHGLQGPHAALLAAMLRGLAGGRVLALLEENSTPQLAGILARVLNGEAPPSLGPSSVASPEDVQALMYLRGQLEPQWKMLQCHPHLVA
Test: Inhibition of recombinant human HDAC10 after 60 mins by fluorescence assay

compound	targetDesc	displayUnit	IC50
C/C=C1\NC(=O)c2csc(n2)CNC(=O)C[C@@H](/C=C/CCSC(=O)CCCCCCC)OC(=O)[C@H](C(C)C)NC1=O	Polyamine deacetylase HDAC10 (Homo sapiens)	nM	1930
C/C=C1\NC(=O)c2csc(n2)[C@@H](C(C)C)NC(=O)C[C@@H](/C=C/CCSC(=O)CCCCCCC)OC(=O)[C@H](C(C)C)NC1=O	Polyamine deacetylase HDAC10 (Homo sapiens)	nM	395
C/C=C1\NC(=O)c2csc(n2)[C@@H](C(C)C)NC(=O)C[C@@H](/C=C/CCS)OC(=O)[C@H](C(C)C)NC1=O	Polyamine deacetylase HDAC10 (Homo sapiens)	nM	138
C/C=C1\NC(=O)c2csc(n2)CNC(=O)C[C@@H](/C=C/CCSC(C)=O)OC(=O)[C@H](C(C)C)NC1=O	Polyamine deacetylase HDAC10 (Homo sapiens)	nM	751
C/C=C1\NC(=O)C(CS)NC(=O)[C@@H](C(C)C)NC(=O)C[C@@H](/C=C/CCS)OC(=O)[C@H](C(C)C)NC1=O (single isomer, unassigned)	Polyamine deacetylase HDAC10 (Homo sapiens)	nM	3.9
C/C=C1\NC(=O)c2csc(n2)CNC(=O)C[C@@H](/C=C/CCS)OC(=O)[C@H](C(C)C)NC1=O	Polyamine deacetylase HDAC10 (Homo sapiens)	nM	37.4
C/C=C1\NC(=O)[C@H]2CSSCC/C=C/[C@H](CC(=O)N[C@H](C(C)C)C(=O)N2)OC(=O)[C@H](C(C)C)NC1=O	Polyamine deacetylase HDAC10 (Homo sapiens)	nM	11
CCCCCCCC(=O)SCC/C=C/[C@@H]1CC(=O)NCc2nc(cs2)C2=N[C@@](C)(CS2)C(=O)N[C@@H](C(C)C)C(=O)O1	Polyamine deacetylase HDAC10 (Homo sapiens)	nM	2210

====

Target: Histone deacetylase 1 (Homo sapiens, UniProt Q13547)
Sequence (Q13547 whole entry): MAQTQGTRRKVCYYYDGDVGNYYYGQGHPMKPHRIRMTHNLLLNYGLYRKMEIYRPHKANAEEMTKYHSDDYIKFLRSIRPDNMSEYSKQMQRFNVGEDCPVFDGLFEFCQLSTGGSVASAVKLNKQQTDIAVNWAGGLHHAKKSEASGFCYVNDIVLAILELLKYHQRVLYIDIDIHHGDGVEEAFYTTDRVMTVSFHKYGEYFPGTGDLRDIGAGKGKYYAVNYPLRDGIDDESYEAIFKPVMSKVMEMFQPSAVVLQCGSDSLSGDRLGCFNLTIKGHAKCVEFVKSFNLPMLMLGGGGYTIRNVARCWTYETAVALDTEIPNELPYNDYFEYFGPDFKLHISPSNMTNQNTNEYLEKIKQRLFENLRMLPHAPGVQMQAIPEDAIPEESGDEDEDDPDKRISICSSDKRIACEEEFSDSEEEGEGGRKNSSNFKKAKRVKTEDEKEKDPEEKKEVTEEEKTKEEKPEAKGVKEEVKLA
Test: Inhibition of recombinant human HDAC1 after 60 mins by fluorescence assay
Reported values of IC50 for individual entries

inputSmiles	targetDesc	displayUnit	IC50
C/C=C1\NC(=O)c2csc(n2)CNC(=O)C[C@@H](/C=C/CCS)OC(=O)[C@H](C(C)C)NC1=O	Histone deacetylase 1 (Homo sapiens, UniProt Q13547)	nM	2.78
CCCCCCCC(=O)SCC/C=C/[C@@H]1CC(=O)NCc2nc(cs2)C2=N[C@@](C)(CS2)C(=O)N[C@@H](C(C)C)C(=O)O1	Histone deacetylase 1 (Homo sapiens, UniProt Q13547)	nM	69.8
C/C=C1\NC(=O)[C@H]2CSSCC/C=C/[C@H](CC(=O)N[C@H](C(C)C)C(=O)N2)OC(=O)[C@H](C(C)C)NC1=O	Histone deacetylase 1 (Homo sapiens, UniProt Q13547)	nM	1050
C/C=C1\NC(=O)c2csc(n2)[C@@H](C(C)C)NC(=O)C[C@@H](/C=C/CCS)OC(=O)[C@H](C(C)C)NC1=O	Histone deacetylase 1 (Homo sapiens, UniProt Q13547)	nM	2.18
C/C=C1\NC(=O)c2csc(n2)[C@@H](C(C)C)NC(=O)C[C@@H](/C=C/CCSC(=O)CCCCCCC)OC(=O)[C@H](C(C)C)NC1=O	Histone deacetylase 1 (Homo sapiens, UniProt Q13547)	nM	165
C/C=C1\NC(=O)c2csc(n2)CNC(=O)C[C@@H](/C=C/CCSC(=O)CCCCCCC)OC(=O)[C@H](C(C)C)NC1=O	Histone deacetylase 1 (Homo sapiens, UniProt Q13547)	nM	158
C/C=C1\NC(=O)c2csc(n2)CNC(=O)C[C@@H](/C=C/CCSC(C)=O)OC(=O)[C@H](C(C)C)NC1=O	Histone deacetylase 1 (Homo sapiens, UniProt Q13547)	nM	21.6

# credit: ChEMBL document CHEMBL3621100
